# testedTarget: T1, IL-11 (UniProt P20809 22-199, limits assumed)
# T1 construct: also called IL-11 protein; IL-11 antigen
# T1 sequence (looked up): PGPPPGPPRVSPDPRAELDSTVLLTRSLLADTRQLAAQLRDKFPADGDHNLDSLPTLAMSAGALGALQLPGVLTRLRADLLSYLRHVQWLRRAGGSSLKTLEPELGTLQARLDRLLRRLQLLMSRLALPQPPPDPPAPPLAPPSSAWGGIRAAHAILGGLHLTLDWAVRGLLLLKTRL
# procedureText: SPR Biacore, scFv captured, IL-11 400 nM
readout: Kd (nM)
Reply numerically in nM, unit not repeated.

INSERT INTO assay_data (binder, readout, valueunit, recordedmeasurement) VALUES
  ('“VH4+VL3”-scFv (scFv) scFv: QVQLVQSGAEVKKPGASVKVSCKASDYTFTNYWLGWVRQAPGHGLEWIGHIYPGGGYTNYNEKFKGRATLTADTSTSTVYMELSSLRSEDTAVYFCARVRSGNDALDFWGQGTLVTVSSGGGGSGGGGSGGGGSEIVLTQSPATLSLSPGERATLSCRASESVDEYGISFMNWFQQKPGQAPRLLIYSASNQGSGIPARFSGSGSGTDFTLTISSLEPEDFAVYFCQQSKEVPWTFGGGTKLEIK', 'Kd', 'nM', 11.2),
  ('“VH4+VL2”-scFv (scFv) scFv: QVQLVQSGAEVKKPGASVKVSCKASDYTFTNYWLGWVRQAPGHGLEWIGHIYPGGGYTNYNEKFKGRATLTADTSTSTVYMELSSLRSEDTAVYFCARVRSGNDALDFWGQGTLVTVSSGGGGSGGGGSGGGGSEIVLTQSPATLSLSPGERATLSCRASESVDEYGISFMNWYQQKPGQAPRLLIYSASNQGSGIPARFSGSGSGTDFTLTISSLEPEDFAVYFCQQSKEVPWTFGGGTKLEIK', 'Kd', 'nM', 11.1),
  ('“VH1+VL2”-scFv (scFv) scFv: QVQLVQSGAEVKKPGASVKVSCKASDYTFTNYWLGWVRQAPGQGLEWMGHIYPGGGYTNYNEKFKGRVTMTRDTSTSTVYMELSSLRSEDTAVYYCARVRSGNDALDFWGQGTLVTVSSGGGGSGGGGSGGGGSEIVLTQSPATLSLSPGERATLSCRASESVDEYGISFMNWYQQKPGQAPRLLIYSASNQGSGIPARFSGSGSGTDFTLTISSLEPEDFAVYFCQQSKEVPWTFGGGTKLEIK', 'Kd', 'nM', 11.2),
  ('“VH3+VL3”-scFv (scFv) scFv: QVQLVQSGAEVKKPGASVKVSCKASDYTFTNYWLGWVRQAPGQGLEWIGHIYPGGGYTNYNEKFKGRATLTADTSTSTVYMELSSLRSEDTAVYFCARVRSGNDALDFWGQGTLVTVSSGGGGSGGGGSGGGGSEIVLTQSPATLSLSPGERATLSCRASESVDEYGISFMNWFQQKPGQAPRLLIYSASNQGSGIPARFSGSGSGTDFTLTISSLEPEDFAVYFCQQSKEVPWTFGGGTKLEIK', 'Kd', 'nM', 9.76);

Query block: Which Kd value is on record for “VH2+VL2”-scFv (scFv) scFv: QVQLVQSGAEVKKPGASVKVSCKASDYTFTNYWLGWVRQAPGQGLEWIGHIYPGGGYTNYNEKFKGRVTMTADTSTSTVYMELSSLRSEDTAVYFCARVRSGNDALDFWGQGTLVTVSSGGGGSGGGGSGGGGSEIVLTQSPATLSLSPGERATLSCRASESVDEYGISFMNWYQQKPGQAPRLLIYSASNQGSGIPARFSGSGSGTDFTLTISSLEPEDFAVYFCQQSKEVPWTFGGGTKLEIK ?
Result block: 17.8
